This collection of values is drawn from the nanobody polyreactivity screen of Harvey et al. (2022).

Protocol Notes: yeast display, Sf9 membrane polyspecificity reagent, FACS + sequencing; frameworks hold sequencing errors
Endpoint Name: polyreactivity (PSR sort gate)

Worked cases, answers included:
QVQHVESGGGLVQAGGSLRLSCPASGIIFDYYAMGWYRQAPGKERELVATITSGGSTNYADSVKGRFTISRDNAKNTVYLQMNSLKPEDTAVYYCAARTYWFPDIYPGLGMDYWGQGTQVTVSS = low polyreactivity
QVQLVESRGGLVQAGGSLRLSCASSGSIFFSNAMGWYRQAPGKERELVAAISKSGGSTYYADSVKGRFTISRDNAKNTVYLQMNSLKPEDTAVYYCAAERTFLYWAYDYWGQGTQVTVSS = high polyreactivity
QVQLVESGGGLVQAGGSLRLSCAASGITFYEYTMGWYRQAPGKERELVAVIRKTGGSTYYADSVKGRFTISRDNAKNTVYLQMNSLKPEDTAVYYCAARKRYQRGYWGQGTLVTVSS = high polyreactivity
QVQLVESGGGLLQAGGSLRLSCAASGSTFPPYAMGWYRQAPGKERELVAAIDWSDGTTYYADSVKGRFTISRDNAKNTVYLQMNSLKPEDTAVYYCAASLSQSEYDYWGQGTQVTVSS = low polyreactivity

Input: Please report the recorded polyreactivity (PSR sort gate) for QVQLVESGGGIVQAGGSLRLSCAASGSTFDSYAMGWYGQAPGKERELVATISWTGSSTYYADSVKGRFTISRDNAKNTVYLQMNSLKPEDTAVYYCATDQYYEYDYWGQGTQVTVSS .
Output: low polyreactivity

Input: Likewise for QVQLVESGGGLVQAGGSLRLSCAASGFTFSDYAMGWYRQAPGKERELVAAISSSGGSTYYADSVKGRFTISRDNAKNTVYLQMNSLKPEDNAVYYCAASSYSFRYRYDTWWYYYWGQGTQVTVSS ?
Output: high polyreactivity

Input: Same read-out for QVQLVESGGGLVQAGGSLRLSCAASGFTFYRYAMGWYRQAPGKERELVAAISKRGGNTYYADSVKGRFTISRDNAKNTVYLQMNSLKPEDTAVYYCAADFATWDAKPYDYWGQGTQVTVSS ?
Output: high polyreactivity

Input: Please answer likewise for QVQLVESGGGLVQAGGSLRLSCAASGIIFSWYAMGWYRQAPGKERELVASITIGGNTNYADSVKGRFTISRDNAKNTVYLQMNSLKPEDTAVYYCAAQTFWYGYGGGDYWGEGTQVTVSS
Output: low polyreactivity

Input: Follow-up entry: QVQLVESGGGLVQAGGSLRLNCAASGRNLPFYAMGWYRQAPGKERDLVATISWTSDSTYYADSVKGRFTISRDNPKNTVFLQMNSLIREVTGVYYCASVYTYTYASTVIYDHWGQGTQVTVSS
Output: low polyreactivity

Input: Subsequent entry: QVQLVESGGGLVQAGGSLRLSCAASGIIFGRYAMGWYRQATGTVRELVAASTRSGGRTYYADTVKGRFTISRDYAKNTVFVQMNSLKPEDTAVYYCSADASGHSYDYWGQGTQVTVSS
Output: high polyreactivity

Input: Quick one: QVQLVESGGGLVQAGGSLRLSCAASGRIFYRYAMGWYRQAPGKEREFVAAISRSGTTTYYADSVKGRFTISRDNAKNTVYLQMNSLKPEDTAVYYCAVGYRGWDGYWGQGTQVTVSS
Output: high polyreactivity
